Molecular target: Kappa-type opioid receptor (Homo sapiens, UniProt P41145)
Sequence (P41145 whole entry): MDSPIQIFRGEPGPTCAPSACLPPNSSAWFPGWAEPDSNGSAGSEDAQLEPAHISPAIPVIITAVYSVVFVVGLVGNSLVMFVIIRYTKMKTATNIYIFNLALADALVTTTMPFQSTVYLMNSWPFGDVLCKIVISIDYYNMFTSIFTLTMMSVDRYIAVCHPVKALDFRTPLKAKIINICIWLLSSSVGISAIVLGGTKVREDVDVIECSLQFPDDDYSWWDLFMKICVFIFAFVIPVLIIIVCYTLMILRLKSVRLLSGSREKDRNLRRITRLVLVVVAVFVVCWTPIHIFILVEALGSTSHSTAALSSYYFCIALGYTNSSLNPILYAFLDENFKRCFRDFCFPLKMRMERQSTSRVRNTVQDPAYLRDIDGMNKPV
Assay: Agonist activity at human kappa opioid receptor expressed in CHO cells assessed as stimulation of [35S]GTPgammaS binding relative to U50488H
Format: functional, cell-based
Each entry below lists one item and its recorded Emax value.
RECORDED_METRIC: Emax (%)

[
  {
    "MOLECULE": "CCOC(C)O[C@H]1C[C@@H](C(=O)OC)[C@]2(C)CC[C@H]3C(=O)O[C@H](c4ccoc4)C[C@]3(C)[C@H]2C1=O (stereo partly drawn)",
    "SYSTEM_NAME": "Kappa-type opioid receptor (Homo sapiens, UniProt P41145)",
    "RECORDED_METRIC": "Emax",
    "OBSERVED_VALUE": 81
  },
  {
    "MOLECULE": "COC(=O)[C@@H]1C[C@H](OCOCc2ccccc2)C(=O)[C@H]2[C@@]1(C)CC[C@H]1C(=O)O[C@H](c3ccoc3)C[C@]21C",
    "SYSTEM_NAME": "Kappa-type opioid receptor (Homo sapiens, UniProt P41145)",
    "RECORDED_METRIC": "Emax",
    "OBSERVED_VALUE": 81
  },
  {
    "MOLECULE": "CCCCOCO[C@H]1C[C@@H](C(=O)OC)[C@]2(C)CC[C@H]3C(=O)O[C@H](c4ccoc4)C[C@]3(C)[C@H]2C1=O",
    "SYSTEM_NAME": "Kappa-type opioid receptor (Homo sapiens, UniProt P41145)",
    "RECORDED_METRIC": "Emax",
    "OBSERVED_VALUE": 81
  }
]
